Literature-derived IC50 for Coagulation factor XI (Homo sapiens, UniProt P03951) follows.
measured property: IC50 (nM)

>>> assay_value("COc1ccccc1Cn1ncc(C(=O)N2CCC[C@@]3(C2)OC(=O)Nc2ccc(Cl)c(F)c23)c1N")
249
>>> assay_value("Cc1nc(N2CCC2)ccc1Cn1cc(NC(=O)c2cncc(-c3c(C(F)F)ccc(Cl)c3F)n2)cn1")
5100
>>> assay_value("Nc1cc(-c2ccc(F)cc2F)nn1CC(=O)N1CC[C@@]2(C1)OC(=O)Nc1ccc(Cl)c(F)c12")
263
>>> assay_value("Nc1c(C(=O)N2CCC[C@@]3(C2)OC(=O)Nc2ccc(Cl)c(F)c23)cnn1C12CC(C1)C2")
2940

I = CC(c1cnc(N2CC[C@H]2[C@@H](C)N2C[C@@H](O)[C@H](O)C2)nc1)n1cc(NC(=O)c2cncc(-c3c(C(F)F)ccc(Cl)c3F)n2)cn1 (stereo partly shown)
II = Cc1c(C(C)n2cc(NC(=O)c3cncc(-c4c(OC(F)F)ccc(Cl)c4F)n3)cn2)cnc(N2C[C@H]3C[C@H]3C2=O)c1C (single isomer, unassigned)
III = Cc1ccc(F)cc1-n1ncc(C(=O)N2CCC[C@@]3(C2)OC(=O)Nc2ccc(Cl)c(F)c23)c1N
IV = CCCC(C(=O)Nc1ccc(C(=O)NC)nc1)n1cc(OC)c(-c2cc(Cl)ccc2OCC(F)(F)F)cc1=O (racemic)
V = O=C(O)c1ccc(-c2cnc(C(CC3CC3)c3ccc(-c4cc(Cl)ccc4-n4cnnn4)c[n+]3[O-])[nH]2)cc1 (single isomer, unassigned)
Given 5 molecules, produce a descending ranking by IC50. Hello, could you send the labels back in the order asked? Thank you. I, III, II, IV, V
(I: 3330 nM, III: 1690 nM, II: 420 nM, IV: 36 nM, V: 11 nM)
